MEASUREMENT_NOTES: Antiproliferative activity against human H184B5F5/M10 cells after 72 hrs by XTT assay
Assay type: functional, cell-based
EXPERIMENTAL_CONTEXT: H184B5F5/M10, 72 h
ATTRIBUTE_MEASURED: pIC50
Keep in mind that pIC50 stands for -log10 of concentration in molar terms.

q: Fill in the blank: the reported pIC50 of COc1ccc(-c2cc3ccccc3nc2/C=C/C(=O)c2ccc([N+](=O)[O-])cc2)cc1 is ____.
a: 5.21

q: Fill in the blank: the reported pIC50 of COc1ccc(-c2cc3ccccc3nc2/C=C/C(=O)c2c(OC)cccc2OC)cc1 is ____.
a: 5.35

q: Fill in the blank: the reported pIC50 of COc1ccc(-c2cc3ccccc3nc2/C=C/C(=O)c2cccs2)cc1 is ____.
a: 5.15

q: Fill in the blank: the reported pIC50 of COc1ccc(-c2cc3ccccc3nc2/C=C/C(=O)c2cc(OC)cc(OC)c2)cc1 is ____.
a: 5.18

---

Test system: MCF7
MEASUREMENT_NOTES: Antiproliferative activity against human MCF7 cells after 72 hrs by XTT assay
Assay type: functional, cell-based
EXPERIMENTAL_CONTEXT: MCF7, 72 h
Response field label: string, one of condition met (IC50 strictly below 6 µM) or condition not met.

q: Bench note: check whether COc1ccc(-c2cc3ccccc3nc2/C=C/C(=O)c2ccc([N+](=O)[O-])cc2)cc1 shows IC50 below 6 µM
a: condition met

q: Bench note: check whether COc1ccc(-c2cc3ccccc3nc2/C=C/C(=O)c2ccc(F)cc2)cc1 shows IC50 below 6 µM
a: condition met

q: Bench note: check whether COc1ccc(C(=O)/C=C/c2nc3ccccc3cc2-c2ccc(OC)cc2)cc1 shows IC50 below 6 µM
a: condition not met

q: Bench note: check whether COc1ccc(-c2cc3ccccc3nc2/C=C/C(=O)c2cccs2)cc1 shows IC50 below 6 µM
a: condition met

q: Bench note: check whether COc1ccc(-c2cc3ccccc3nc2/C=C/C(=O)c2cc(OC)cc(OC)c2)cc1 shows IC50 below 6 µM
a: condition met

q: Bench note: check whether COc1ccc(-c2cc3ccccc3nc2/C=C/C(=O)c2c[nH]c3ccccc23)cc1 shows IC50 below 6 µM
a: condition not met

q: Bench note: check whether COc1ccc(-c2cc3ccccc3nc2C=O)cc1 shows IC50 below 6 µM
a: condition not met

q: Bench note: check whether COc1ccc(-c2cc3ccccc3nc2/C=C/C(=O)c2ccccn2)cc1 shows IC50 below 6 µM
a: condition met

q: Bench note: check whether COc1ccc(-c2cc3ccccc3nc2/C=C/C(=O)c2ccco2)cc1 shows IC50 below 6 µM
a: condition met

q: Bench note: check whether COc1ccc(-c2cc3ccccc3nc2/C=C/C(=O)c2ccc(Br)s2)cc1 shows IC50 below 6 µM
a: condition met

q: Bench note: check whether COc1ccc(-c2cc3ccccc3nc2/C=C/C(=O)c2ccc(O)cc2)cc1 shows IC50 below 6 µM
a: condition not met

q: Bench note: check whether COc1ccc(-c2cc3ccccc3nc2/C=C/C(=O)c2ccccc2)cc1 shows IC50 below 6 µM
a: condition met

q: Bench note: check whether COc1ccc(-c2cc3ccccc3nc2/C=C/C(=O)c2ccc(N)cc2)cc1 shows IC50 below 6 µM
a: condition not met

q: Bench note: check whether COc1ccc(-c2cc3ccccc3nc2/C=C/C(=O)c2c(OC)cccc2OC)cc1 shows IC50 below 6 µM
a: condition met

q: Bench note: check whether COc1ccc(-c2cc3ccccc3nc2/C=C/C(=O)c2sccc2N)cc1 shows IC50 below 6 µM
a: condition not met

q: Bench note: check whether COc1ccc(-c2cc3ccccc3nc2/C=C/C(=O)c2cnc(N)nc2C)cc1 shows IC50 below 6 µM
a: condition not met

q: Bench note: check whether COc1ccc(-c2cc3ccccc3nc2/C=C/C(=O)c2ccc(OC)cc2OC)cc1 shows IC50 below 6 µM
a: condition not met

q: Bench note: check whether COc1ccc(-c2cc3ccccc3nc2/C=C/C(=O)c2ccc[nH]2)cc1 shows IC50 below 6 µM
a: condition not met
